The reported numbers originate from patent US20150239831A1.

Target: VIPR2 (Homo sapiens)
Sequence (P41587 24-438): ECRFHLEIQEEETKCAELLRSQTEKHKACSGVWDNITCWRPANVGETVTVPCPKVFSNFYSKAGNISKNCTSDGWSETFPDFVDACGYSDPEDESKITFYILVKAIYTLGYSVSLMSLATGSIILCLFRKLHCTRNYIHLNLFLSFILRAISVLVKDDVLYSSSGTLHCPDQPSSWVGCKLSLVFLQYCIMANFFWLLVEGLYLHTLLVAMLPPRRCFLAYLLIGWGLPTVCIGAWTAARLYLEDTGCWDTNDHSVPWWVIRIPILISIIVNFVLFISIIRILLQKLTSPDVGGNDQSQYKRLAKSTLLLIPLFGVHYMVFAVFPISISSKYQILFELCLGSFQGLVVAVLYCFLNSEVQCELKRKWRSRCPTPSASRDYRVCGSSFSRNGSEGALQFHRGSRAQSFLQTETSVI
Assay: BRET-based VIPR2 activation assay (CAMYEL cAMP sensor, CHO cells, VIP background)
Format: cell-based
Conditions: Table 1; read-out: IC50
ASSAY_READOUT: IC50 (nM)

{"columns": ["COMPOUND", "IC50, nM"],
 "data": [
  ["Cc1ccc(S(=O)(=O)NC[C@@H](O)C[C@@H](Cc2ccccc2)C(=O)N[C@H]2c3ccccc3C[C@H]2O)cc1 [I]", 1180],
  ["O=C(N[C@H]1c2ccccc2C[C@H]1O)[C@H](Cc1ccccc1)C[C@H](O)CNS(=O)(=O)c1ccc([N+](=O)[O-])cc1 [Ref C1, reference compound]", 1300],
  ["O=C(N[C@H]1c2ccccc2C[C@H]1O)[C@H](Cc1ccccc1)C[C@H](O)CNS(=O)(=O)c1ccc2c(c1)OCCO2 [Compound X109]", 206],
  ["CCc1ccc(S(=O)(=O)NC[C@@H](O)C[C@@H](Cc2ccccc2)C(=O)N[C@H]2c3ccccc3C[C@H]2O)cc1 [Compound X115]", 1130],
  ["N#Cc1ccc(S(=O)(=O)NC[C@@H](O)C[C@@H](Cc2ccccc2)C(=O)N[C@H]2c3ccccc3C[C@H]2O)cc1 [C]", 1330]
]}

1. COc1ccc(S(=O)(=O)NC[C@@H](O)C[C@@H](Cc2ccccc2)C(=O)N[C@H]2c3ccccc3C[C@H]2O)cc1 [E]
2. O=C(N[C@H]1c2ccccc2C[C@H]1O)[C@H](Cc1ccccc1)C[C@H](O)CNS(=O)(=O)c1ccc(Cl)cc1 [Compound X106]
3. CC(=O)c1ccc(S(=O)(=O)NC[C@@H](O)C[C@@H](Cc2ccccc2)C(=O)N[C@H]2c3ccccc3C[C@H]2O)cc1 [K]
4. O=C(N[C@H]1c2ccccc2C[C@H]1O)[C@H](Cc1ccccc1)C[C@H](O)CNS(=O)(=O)c1ccc2c(c1)OCO2 [Compound X110]
[Q] Parameters: sort_field (IC50), sort_dir (desc). Give the order by naming the labels one after another as requested.
[A] 4, 1, 3, 2
